tested on: Mus musculus; test: Agonist activity in sc dosed mouse assessed as induction of hypothermia
// reported ED50 for each item listed
Expressed in mg/kg, but write only the number.

Here are 6 compounds together with their reported answers.
>  <compound>
Cl.Cl.c1ccc(-c2cncc(C3CC4CCC3N4)c2)cc1 (racemic)

>  <unit name>
mg/kg

>  <ED50>
1.5

$$$$
>  <compound>
Cl.Cl.O=[N+]([O-])c1ccc(-c2cncc(C3CC4CCC3N4)c2)cc1 (racemic)

>  <unit name>
mg/kg

>  <ED50>
2.9

$$$$
>  <compound>
Cl.Cl.O=[N+]([O-])c1cccc(-c2cncc(C3CC4CCC3N4)c2)c1 (racemic)

>  <unit name>
mg/kg

>  <ED50>
37.6

$$$$
>  <compound>
CN1CCC[C@@H]1c1cccnc1 [R-NICOTINE]

>  <unit name>
mg/kg

>  <ED50>
1

$$$$
>  <compound>
Clc1ccc(C2CC3CCC2N3)cn1 (racemic) [EPIBATIDINE]

>  <unit name>
mg/kg

>  <ED50>
0.004

$$$$
>  <compound>
c1cnc2cc3c(cc2n1)[C@@H]1CNC[C@H]3C1 [VARENICLINE]

>  <unit name>
mg/kg

>  <ED50>
2.8

$$$$

Fill in the blank: the reported ED50 of Cl.O=[N+]([O-])c1ccc(-c2cc(C3CC4CCC3N4)cnc2F)cc1 (racemic) is ____.
3.5

Fill in the blank: the reported ED50 of Cl.Nc1cccc(-c2cncc(C3CC4CCC3N4)c2)c1 (racemic) is ____.
3.8

###

// reported Activity for each item listed
test system: Mus musculus; test: Antinociceptive activity in acute pain mouse model at 10 mg/kg, sc by hot plate method; type: functional; details: route subcutaneous
Expressed in %, but write only the number.

Here are 4 molecules together with their reported answers.
>  <molecule>
Cl.Fc1ncc(C2CC3CCC2N3)cc1-c1cccc(Cl)c1 (racemic)

>  <unit name>
%

>  <Activity>
14

$$$$
>  <molecule>
Cl.Nc1ccc(-c2cc(C3CC4CCC3N4)cnc2F)cc1 (racemic)

>  <unit name>
%

>  <Activity>
10

$$$$
>  <molecule>
Cl.Cl.c1ccc(-c2cncc(C3CC4CCC3N4)c2)cc1 (racemic)

>  <unit name>
%

>  <Activity>
30

$$$$
>  <molecule>
Cl.Cl.O=[N+]([O-])c1ccc(-c2cncc(C3CC4CCC3N4)c2)cc1 (racemic)

>  <unit name>
%

>  <Activity>
26

$$$$

Fill in the blank: the reported Activity of Cl.Nc1cccc(-c2cc(C3CC4CCC3N4)cnc2F)c1 (racemic) is ____.
4

Fill in the blank: the reported Activity of Cl.Cl.Fc1cccc(-c2cncc(C3CC4CCC3N4)c2)c1 (racemic) is ____.
8

Fill in the blank: the reported Activity of "c1cnc2cc3c(cc2n1)[C@@H]1CNC[C@H]3C1" is ____.
10

Fill in the blank: the reported Activity of Cl.Fc1ncc(C2CC3CCC2N3)cc1-c1ccc(Cl)cc1 (racemic) is ____.
7

Fill in the blank: the reported Activity of Cl.Nc1ccc(-c2cncc(C3CC4CCC3N4)c2)cc1 (racemic) is ____.
10

Fill in the blank: the reported Activity of COc1cccc(-c2cc(C3CC4CCC3N4)cnc2F)c1.Cl (racemic) is ____.
8
